test system: patients with acute sore throat and pharyngitis; test: Improvement Assessment (IA), same study; type: in vivo, human; conditions: single oral dose, over the 6-hour treatment period; placebo 2/9
outcome_measure: patients who achieved at least 50% improvement over 6 hours (IA)

> print(dat)
                                   molecule  value.measured
1  Cc1ccc(-c2cc(C(F)(F)F)nn2-c2ccc(S(N)(=O)=O)cc2)cc1             8/9
2  CC(C)Cc1ccc(C(C)C(=O)O)cc1 (stereo not shown)             4/9
3                        CC(=O)Nc1ccc(O)cc1             7/9
4  COc1ccc2cc([C@H](C)C(=O)O)ccc2c1 [naproxen, naproxen sodium]             4/9
